Sourced from the supplement of paper PMC9170038

- Tested on: K4 kissing-loop RNA reporter;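 note: bound reporter read as fluorescence of individual clusters on recovered sequencing chips by microscopy, with normalized cluster intensities fitted with a binding model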
- test.protocol: apparent KD of K4 kissing-loop reporter; higher = weaker reporter binding
- test.context: Eterna round: R107; input ligand: arginine 13.2 mM
Criterion: apparent KD of K4 kissing-loop reporter meeting or surpassing 100 nM. Met: 1. Not met: -1.

[[record]]
monomer_sequence = "UGAGGGAUCUCGGCCGCCACUCGUGGGAAAUGGGCCUCAGGGAUAUAGUGAUGUUAUGUAAAGAAGAGGACCGGGAGAAGGAAGG [ExTryptoB.Dh]"
assay_target = "K4 kissing-loop RNA reporter"
class_name = 1

[[record]]
monomer_sequence = "UAAAAUAAAUAAUAGAGAUAAUUACUCGAAGGAGCGACGAAUUCGUCAGGUAGGUCGCGAGUGAUGUUCGCAAAUAUUAUCUCAU [AK3 Exc Arginine A]"
assay_target = "K4 kissing-loop RNA reporter"
class_name = 1

[[record]]
monomer_sequence = "ACCAUCAAAGAUGGCCAGGACUCCGCUGAUACCAGAGUGGAAACACUCCCUUGGCAGCAGGUGAGUGAUGUUCACAGUCCAUGGA [Omel KL Theo A SS B v4]"
assay_target = "K4 kissing-loop RNA reporter"
class_name = 1

[[record]]
monomer_sequence = "GCAAGGCUACAAGGAUAUGCGCGAACCUACCGCCAAGCGGCUACCGGUGAGUCAGUGAUGUUGGCUGCAGAAGGUGUGAUUGAGC [theeternabot_sameState_KL_FMN_B_45]"
assay_target = "K4 kissing-loop RNA reporter"
class_name = 1

[[record]]
monomer_sequence = "AGAGUCAGACAAAAGUCUGGCUCAGCCGAAGGAGCGUCCGAAAGGACAGGUAGGUCGCGGUUGCAUGAGUGAUGUUGAUGUUUUU [KL-SSArg-A23]"
assay_target = "K4 kissing-loop RNA reporter"
class_name = 1

[[record]]
monomer_sequence = "GUAGAUAGGCUACAUCUCUAGUCUAAACACUAGGAUAUCAGGAAACUGAGAAGGAGUGUCAUUGGAGUGAUGUUCCAAGAAUAAU [KL-SSFMN-A17]"
assay_target = "K4 kissing-loop RNA reporter"
class_name = 1

[[record]]
monomer_sequence = "AGGUACAAAAGUACCGCUAGAUCCACGGAAGGAGCGCGCGAAAGCGCAGGUAGGUCGCCGGGCAGUGAUGUUGCCGGAUCUAGCA [Omei KL Arginine A SS A v7]"
assay_target = "K4 kissing-loop RNA reporter"
class_name = 1

[[record]]
monomer_sequence = "GGAGUUACCUGGGAUACCAGUCGGAGGCCCAGAGCUCGGAGUGAUGUUCUGGGAUGUUUCGGCCCUUGGCAGCUCUGGGUCUCCC [#2 Exclusion - Theophylline B Attempt #7 (HarryS)]"
assay_target = "K4 kissing-loop RNA reporter"
class_name = 1

[[record]]
monomer_sequence = "UGUAUGUGAUUUGAUACCAGACCAGCUGGUGGUGUAUGAGUGAUGUUCAUGCUGGUUUGGGUCCCUUGGCAGCAAAUCGCAUACU [KL-SSTheoB29]"
assay_target = "K4 kissing-loop RNA reporter"
class_name = -1

[[record]]
monomer_sequence = "AAACGUUGGUGCGAUACCAGCUGGUCGGAAACGACCUUGCUGGAGUGAUGUUCCAAGUAAAGCCCUUGGCAGCGCACCGACGAAA [MAT - Same State Theophlline B - Mod of Eli - D23]"
assay_target = "K4 kissing-loop RNA reporter"
class_name = -1

[[record]]
monomer_sequence = "AGAAAAGGGACGAUCGUCGAGUUGCCAGAAGGAGCGGUAAUUUUACCAGGUAGGUCGCUGGCCCAGUGAUGUUGGGCUUUUAAGA [Biisinaor]"
assay_target = "K4 kissing-loop RNA reporter"
class_name = -1

[[record]]
monomer_sequence = "AGACUACCACACUGUCAAUAGACAGUGAAUUAGGAUAUGCUGAUAAGCAGAAGGAGUGAUGUUCCCAGGUAGUCAAUAAAAUAAU [FmnAX 13 U30+C66]"
assay_target = "K4 kissing-loop RNA reporter"
class_name = 1

[[record]]
monomer_sequence = "AAUGCAUAGUGAAGGAGCGCGAUUUGCAGUGAUGUUGCAAAUUUAAACAAUCUUAUCUUUUCGCAGGUAGGUCGCACUAUGCAUA [JR_Nu_SSArginiB_Sub021]"
assay_target = "K4 kissing-loop RNA reporter"
class_name = -1

[[record]]
monomer_sequence = "GGAUAGGACAGAGGAUAUGGUAGUGAUGUUACCAAACUGGUUACUCUUGUCAGAAAACUGGCAUCUCCAGAAGGCUGUCCUAUCG [KL-XFMN-B10]"
assay_target = "K4 kissing-loop RNA reporter"
class_name = 1

[[record]]
monomer_sequence = "GGCGUCUAAAAGUGCCUAGAGAGAAAGGAUACCAGCACCCGGCGGUGCCCUUGGCAGCCUAGCCCAGUGAUGUUGGGUCCUCUAA [Lasorian]"
assay_target = "K4 kissing-loop RNA reporter"
class_name = 1

[[record]]
monomer_sequence = "ACGUCACGUAAACUCGUGGUUUCGAUCGAUACCAGUAGCGAGAGUUACCCUUGGCAGCGACAUGAGUGAUGUUCAUGUACGAAGA [KL-XTheoA1]"
assay_target = "K4 kissing-loop RNA reporter"
class_name = -1

[[record]]
monomer_sequence = "UUUUAAAUAUCUGAUACCAGAGCGAAUAUAUGUAGUGAUGUUAUAUACAAAAUAAAUAAGCUCCCUUGGCAGCAGUAUUAAUUUU [Astros-ExyTheB#?#ED14.66]"
assay_target = "K4 kissing-loop RNA reporter"
class_name = 1

[[record]]
monomer_sequence = "CCCUAUAUAUGCAGUGAUGUUGCAACUGAUACCAGUAUCGAAAGAUACCCUUGGCAGCGGAAAACCGCUACGUAAUUUAAUAGGG [Ex Theophylline A K4 21]"
assay_target = "K4 kissing-loop RNA reporter"
class_name = 1

[[record]]
monomer_sequence = "AAAUUUAUAUUAGAUACCAGCAUUUUGAAUGUUUAUUAUGACAAGAGUGAUGUUCUUGUAUGCCCUUGGCAGCUGGUAUGGGUUU [KL-XTheo-B24]"
assay_target = "K4 kissing-loop RNA reporter"
class_name = 1

[[record]]
monomer_sequence = "AAUAUAUAGUGAAGGAGCGCGAUAAGCAGUGAUGUUGCUUAGUUAUUAGUGUUUAUUUUUACGCAGGUAGGUCGCACUAUAUAUA [JR_ExcArginiB_Sub017]"
assay_target = "K4 kissing-loop RNA reporter"
class_name = 1

[[record]]
monomer_sequence = "UGUACCGAGUGAGGAUAUGUCGUCGAAAGACGAAAUGGAGUGAUGUUCCUUAAACUGCGAAAGCAGACAGAAGGCACUUGGUACU [FmnBS 29 G11+C75]"
assay_target = "K4 kissing-loop RNA reporter"
class_name = 1

[[record]]
monomer_sequence = "GGGAGCAAAGCUCCCGGAUGCUAUUACCAGUAGGAUAUCUGGAAACAGAGAAGGGCUAAGCCAGUGAUGUUGGUUUCGAGCAUCC"
assay_target = "K4 kissing-loop RNA reporter"
class_name = 1

[[record]]
monomer_sequence = "AGCGCCUAAGCCGAUACCAGAAACGCGGUGCGUCGCACGAUUAACUAGGAAAGUGAUGUUUUCCCUUGGCAGCGGGACCUGUGAG [theeternabot_exclusion_KL_Theo_B_11]"
assay_target = "K4 kissing-loop RNA reporter"
class_name = 1

